Test system: COLO 205 colon
Assay: NCI tumour cell line growth inhibition, 48 h; in the data active = GI50 below about 0.43 µM; inactive = the rest
Possible outcomes: active, inactive

molecule	classification
CC[C@]1(O)CC2CN(CCc3c([nH]c4ccccc34)[C@@](C(=O)OC)(c3cc4c(cc3OC)N(C=O)[C@H]3[C@@](O)(C(=O)OC)[C@H](OC(C)=O)[C@]5(CC)C=CCN6CC[C@]43[C@@H]65)C2)C1 (stereo partly drawn)	active
NC(=O)CC1(O)C=C(Br)C(=O)C(Br)=C1	inactive
C=C1C(=O)O[C@H]2[C@H]1CC/C(Cn1cc(-c3cccc(Cl)c3)nn1)=C\CC[C@@]1(C)O[C@@H]21	active
Clc1ccc(Nc2nc(Nc3ccccc3)nc(Nc3ccc(-c4cc(-c5ccc(Cl)cc5)on4)cc3)n2)cc1	inactive
Cc1ccc(/C=C/c2c(C(=O)/C=C/c3ccc(Cl)cc3)c(C)nc3ccccc23)cc1	inactive
Cc1c(-c2ccc(O)cc2)oc(=O)c2ccc(O)cc12	inactive
CCCCN=C(N)c1ccc(N2CCCN(c3ccc(C(N)=NCCCC)cc3)CC2)cc1	inactive
Cc1nc(-c2cnc(NC(C)C)n(C)c2=O)ccc1Oc1ccnc(-c2cnn(C)c2)c1	inactive
